test system: Stenotrophomonas maltophilia; experiment: Antibacterial activity against gram-negative Stenotrophomonas maltophilia SM256 by CLSI method; assay type: functional
MIC listing for selected compounds.
Please give a number only; it is taken to be in µg/mL.

compound=CN(C)[C@@H]1C(O)=C(C(N)=O)C(=O)[C@@]2(O)C(O)=C3C(=O)c4c(O)cc([C@@H]5CCCN5CC5CC5)c(C(F)(F)F)c4C[C@H]3C[C@@H]12 readingunit=µg/mL testresult=4
compound=CN(C)[C@@H]1C(O)=C(C(N)=O)C(=O)[C@@]2(O)C(O)=C3C(=O)c4c(O)cc([C@H]5CCCN5)c(C(F)(F)F)c4C[C@H]3C[C@@H]12 readingunit=µg/mL testresult=1
compound="CC1CCNC1c1cc(O)c2c(c1C(F)(F)F)C[C@H]1C[C@H]3[C@H](N(C)C)C(O)=C(C(N)=O)C(=O)[C@@]3(O)C(O)=C1C2=O (stereo partly specified)" readingunit=µg/mL testresult=0.5
compound=CN(C)[C@@H]1C(O)=C(C(N)=O)C(=O)[C@@]2(O)C(O)=C3C(=O)c4c(O)cccc4[C@@](C)(O)[C@H]3C[C@@H]12 readingunit=µg/mL testresult=16

Task item: Quick one: MIC of CN1CCCCC1c1cc(O)c2c(c1Cl)C[C@H]1C[C@H]3[C@H](N(C)C)C(O)=C(C(N)=O)C(=O)[C@@]3(O)C(O)=C1C2=O (stereo partly specified) ?
Reply: 1

Task item: Quick one: MIC of CN(C)[C@@H]1C(O)=C(C(N)=O)C(=O)[C@@]2(O)C(O)=C3C(=O)c4c(O)cc([C@@H]5CCCN5)c(C(F)(F)F)c4C[C@H]3C[C@@H]12 ?
Reply: 1
